- TGT: muscarinic receptors (3H-QNB site, cerebral cortex)
- EXPERIMENTAL_SETUP: 0.27nM 3H-QNB, tris buffer pH 7.7, 37° C., 30 min; rat cerebral cortex
pIC50: −log10 of the molar value. Where a name gives a salt, the structure may show the parent alone.
VALUE_KIND: pIC50

MOLECULE: CON=C(C)C12CCCN(C1)C2 [Example E15, oxalate salt]
VALUE_KIND: pIC50
REPORTED_RESULT: 4.24
//
MOLECULE: Cc1nnc(C23CCCN(C2)C3)o1 [Example E13, oxalate salt]
VALUE_KIND: pIC50
REPORTED_RESULT: 4.78
//
MOLECULE: Cc1noc(C23CCCN(C2)C3)n1 [Example E2, oxalate salt]
VALUE_KIND: pIC50
REPORTED_RESULT: 5.30
//
MOLECULE: CCCCc1noc(C23CCCN(C2)C3)n1 [Example E8, oxalate salt]
VALUE_KIND: pIC50
REPORTED_RESULT: 5.71
//
MOLECULE: C/C=C/Cc1noc(C23CCCN(C2)C3)n1 [Example E11, oxalate salt]
VALUE_KIND: pIC50
REPORTED_RESULT: 5.73
//
MOLECULE: C1CN2CC(c3nc(C4CC4)no3)(C1)C2 [Example E7, oxalate salt]
VALUE_KIND: pIC50
REPORTED_RESULT: 6.24
//
MOLECULE: c1coc(C23CCCN(C2)C3)n1 [Example E4, oxalate salt]
VALUE_KIND: pIC50
REPORTED_RESULT: 4.22

Hey, just so you know, these numbers are from patent US5043343A.
